Reference source for all entries: ChEMBL document CHEMBL3856275

- assayedTarget: Dipeptidyl peptidase 1 (Canis lupus familiaris, UniProt O97578)
- Sequence (O97578 1-109 limits assumed): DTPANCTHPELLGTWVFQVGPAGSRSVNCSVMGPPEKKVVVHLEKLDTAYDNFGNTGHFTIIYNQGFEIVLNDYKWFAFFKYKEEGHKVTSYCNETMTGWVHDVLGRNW
- Sequence (O97578 200-366 limits assumed): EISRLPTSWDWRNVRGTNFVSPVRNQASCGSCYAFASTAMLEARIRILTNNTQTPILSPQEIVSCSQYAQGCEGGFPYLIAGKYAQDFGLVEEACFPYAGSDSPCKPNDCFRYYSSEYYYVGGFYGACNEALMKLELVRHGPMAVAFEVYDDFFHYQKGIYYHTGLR
- Sequence (O97578 367-435 limits assumed): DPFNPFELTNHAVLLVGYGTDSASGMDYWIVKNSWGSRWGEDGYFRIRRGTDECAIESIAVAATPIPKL
pIC50: −log10 of the molar value.
readoutLabel: pIC50

INSERT INTO results (smilesrecord, readoutlabel, reportedvalue) VALUES
  ('Cn1c(=O)oc2ccc(-c3ccc(C[C@@H](C#N)NC(=O)[C@@H]4CNCCCO4)cc3)cc21', 'pIC50', 7.80);

###

- assayedTarget: Cathepsin G (Homo sapiens)
- Sequence (P08311 whole entry): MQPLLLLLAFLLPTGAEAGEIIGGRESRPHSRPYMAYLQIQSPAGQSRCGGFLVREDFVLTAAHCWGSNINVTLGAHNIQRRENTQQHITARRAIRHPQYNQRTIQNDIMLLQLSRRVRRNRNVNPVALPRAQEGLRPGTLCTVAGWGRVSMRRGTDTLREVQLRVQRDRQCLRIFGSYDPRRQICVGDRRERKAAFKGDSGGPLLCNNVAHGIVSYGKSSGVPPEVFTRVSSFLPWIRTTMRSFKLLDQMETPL
- assayDetails: Inhibition of human recombinant cathepsin G
pIC50: −log10 of the molar value.
readoutLabel: pIC50

INSERT INTO assay_data (smilesrecord, reportedvalue) VALUES
  ('Cn1c(=O)oc2ccc(-c3ccc(C[C@@H](C#N)NC(=O)[C@@H]4CNCCCO4)cc3)cc21', '< 4.70');
